target: Cdc42 (Homo sapiens, UniProt P60953); assay: Cdc42-GEF-assay, additional compound screening; format: biochemical; parameters: purchased Cytoskeleton Inc; settings: baseline slope relative to ZCL278, normalized to batch
Sequence (P60953 whole entry): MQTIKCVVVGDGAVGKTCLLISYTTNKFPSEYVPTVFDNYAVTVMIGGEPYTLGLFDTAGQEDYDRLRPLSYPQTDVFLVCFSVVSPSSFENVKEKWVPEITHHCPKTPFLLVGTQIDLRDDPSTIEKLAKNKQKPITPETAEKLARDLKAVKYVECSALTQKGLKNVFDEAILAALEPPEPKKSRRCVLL
Peptide text beside a SMILES is read from it. * marks the point of attachment. Trt = c1ccc(C(c2ccccc2)(c2ccccc2)*)cc1; Cbz = O=C(OCc1ccccc1)*; NHNH2 = NN*
assay.metric: % ZCL278 (without GEF)

% ZCL278 (without GEF) reported for this compound O=C(CCN1C(=O)C2C(C1=O)[C@H]1C=C[C@@H]2C1)Nc1cccc2ccccc12 (stereo partly shown) : 59.173%

Lookup result for OCN1CCC2N(CO)CCC3N(CO)CCC1N23 (stereo not shown) ; measured % ZCL278 (without GEF): 15.832%

% ZCL278 (without GEF) for O=c1[nH]cc(C2OCC(O)C(O)C2O)c(=O)[nH]1 (stereo not shown) is 34.327%

So for NS(=O)(=O)c1ccc(NC2OCC(O)C(O)C2O)cc1 (stereo not shown) , the logged % ZCL278 (without GEF) turned out to be 12.229%

Short answer for `c1ccc(-c2nc3c(c(NCc4cn5ccsc5n4)n2)CCNC3)cc1` : % ZCL278 (without GEF) was 45.056%

Noted for CC1(C)OC2COC(c3[nH]nc(C(N)=O)c3C(=O)N=[N+]=[N-])C2O1 (stereo not shown) : its % ZCL278 (without GEF) reads 20.812%

Lab book: % ZCL278 (without GEF) of NNC(=O)C(Cc1cnc[nH]1)NC(=O)CNC(=O)C(CSC(c1ccccc1)(c1ccccc1)c1ccccc1)NC(=O)OCc1ccccc1 (stereo not drawn) [NSC129911] (Cbz-Cys(Trt)-Gly-His-NHNH2; configuration not given here) noted as 31.919%

Entry `CC(=O)Nc1ccc(Nc2nc(-c3ccc(O)cc3)cs2)cc1` ; % ZCL278 (without GEF) = 63.125%

The reported % ZCL278 (without GEF) of the compound `O=C(c1ccccc1O)N1CCOc2c(O)cc(-c3nc4ccccc4s3)cc2C1` was 69.001%

Entry Cc1cn(C2OC(C(O)C(N)=O)C(O)C2O)c(=O)[nH]c1=O (stereo not shown) ; % ZCL278 (without GEF) = 9.098%
